Collected concentration at 2 h values appear next to each entry.
Test: Urine metabolites after oral Gegen water extract, quantified by UPLC-MS/MS
Format: in vivo, spontaneously hypertensive rats (SHRs)
Conditions: spontaneously hypertensive rat (SHR), urine, oral, 2 h after last dose of Gegen water extract 300 mg/kg p.o., 3-week treatment, Mean ± SEM, n = 8, read-out: Content in urine, 2 h
Method: Urine samples were collected into ice-cold 15-ml Falcon tubes every 2 h and up to a total of 8 h, and the tubes were cooled by ice to prevent bacteria proliferation and water evaporation during collection. […] The gradient profile was set as follows: 10-40% B from 0 to 11 min; and 40-80% B from 11 to 15 min. […] The precision and accuracy of the quantitation were satisfied according to FDA Bioanalytical Method Validation Guidance for Industry. […]
Answer in ng/mL, number only, no unit symbol.

Output concentration at 2 h of "COc1ccc(-c2coc3cc(O)cc(O)c3c2=O)cc1" 26

Output concentration at 2 h of "O=c1c(-c2ccc(O)cc2)coc2cc(O)ccc12" 4400

Output concentration at 2 h of O=c1c(-c2ccc(O)cc2)coc2c([C@@H]3O[C@H](CO)[C@@H](O)[C@H](O)[C@H]3O)c(O)ccc12 [Puerarin, puerarin (daidzein-8-C-glucoside)] 6380

----------
target: M3 receptor (carbachol-induced detrusor contraction) (Rattus norvegicus); construct: the whole bladder was immediately isolated to prepare detrusor strips in Krebs’ solution; assay: Carbachol-induced bladder strip (detrusor) contraction, ex vivo organ bath; details: carbachol (10 μM)-induced detrusor contraction; Mean ± SEM, n = 3
Sequence (P08483 whole entry): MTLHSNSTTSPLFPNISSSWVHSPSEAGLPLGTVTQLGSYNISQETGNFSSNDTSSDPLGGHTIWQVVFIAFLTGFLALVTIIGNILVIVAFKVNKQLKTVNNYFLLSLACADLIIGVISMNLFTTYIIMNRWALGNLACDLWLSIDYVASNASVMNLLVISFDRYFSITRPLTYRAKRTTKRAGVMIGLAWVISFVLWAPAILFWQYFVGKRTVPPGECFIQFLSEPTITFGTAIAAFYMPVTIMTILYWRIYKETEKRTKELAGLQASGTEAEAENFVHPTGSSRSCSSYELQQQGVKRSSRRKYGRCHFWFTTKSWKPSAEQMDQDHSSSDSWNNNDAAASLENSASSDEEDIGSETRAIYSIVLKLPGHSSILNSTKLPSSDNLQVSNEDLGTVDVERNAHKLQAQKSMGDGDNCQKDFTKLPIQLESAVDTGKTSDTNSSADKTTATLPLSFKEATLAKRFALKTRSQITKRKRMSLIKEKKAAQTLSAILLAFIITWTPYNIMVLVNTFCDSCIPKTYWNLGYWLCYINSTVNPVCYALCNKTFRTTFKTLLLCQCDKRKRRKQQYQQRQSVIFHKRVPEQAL
Collected IC50 values appear next to each entry.

Field: example entries. Status: answers known.
O=c1c(-c2ccc(O)cc2)coc2cc(O)ccc12: 158 µM
COc1ccc(-c2coc3cc(O)cc(O)c3c2=O)cc1: 201 µM

Query compound follows.
Give the observed IC50 of O=c1c(-c2ccc(O)cc2)coc2cc(O[C@@H]3O[C@H](CO)[C@@H](O)[C@H](O)[C@H]3O)cc(O)c12 [Genistin, genistin (genistein-7-O-glucoside)] for M3 receptor (carbachol-induced detrusor contraction) (Rattus norvegicus). > 231 µM
